Reference source: ChEMBL document CHEMBL4004786

- Test system: WI-38
- assay: Cytotoxicity against human WI38 cells after 24 hrs by resazurin assay
- experimental.setup: WI-38, 24 h
The following compounds are shown together with reported pIC50 values.
When answering, recall that pIC50 equals minus log10 of the concentration in mol/L, and write that number alone.

C=C1C(=O)O[C@]23C4=C5C(=O)[C@H](O)[C@]6(C)C4=C(C[C@H]2[C@]2(C)C(C[C@]13[C@]5(C)C(=O)OC)[C@](O)(COC(=O)/C(C)=C/COC(=O)CCC(=O)OC)[C@H]1C[C@H]12)[C@H]1C[C@H]16 (some centres not stated) : 4.81

Exam item: Given the compound COC(=O)/C(C)=C1/C(=O)[C@H](O)[C@]2(C)C3=C(C[C@@H]4[C@]5(OC(=O)C6=C5C[C@H]5[C@](O)(COC(=O)/C=C(\C)COC(=O)CCC(=O)OC6)[C@H]6C[C@H]6[C@]45C)[C@H]31)[C@H]1C[C@H]12 , what is its reported pIC50?
Marked response: 5.91

Exam item: I'd like to know its pIC50. The compound in question is COC(=O)/C(C)=C1\C(=O)[C@H](O)[C@]2(C)C3=C(C[C@@H]4[C@]5(OC(=O)C(COC(=O)C[C@H](O)C(=O)OC)=C5C[C@H]5[C@](O)(COC(=O)/C(C)=C/CO)[C@H]6C[C@H]6[C@]45C)[C@H]31)[C@H]1C[C@H]12
Marked response: 5.39

Exam item: // returns reported pIC50 for input COC(=O)CCC(=O)OCC1=C2C[C@H]3[C@](O)(COC(=O)/C=C(\C)CO)[C@H]4C[C@H]4[C@]3(C)[C@@H]3CC4=C5[C@H](/C(=C(\C)C(=O)OC)C(=O)[C@H](O)[C@@]5(C)[C@@H]5C[C@H]45)[C@]23OC1=O
Marked response: 5.27

Exam item: May I ask what pIC50 has been recorded for C/C=C(\C)C(=O)OC[C@]1(O)[C@H]2C[C@H]2[C@]2(C)[C@@H]3CC4=C5[C@H](/C(=C(/C)C(=O)OC)C(=O)[C@H](O)[C@@]5(C)[C@@H]5C[C@H]45)[C@@]34OC(=O)C(COC(C)=O)=C4C[C@@H]12 ?
Marked response: 6.80

Exam item: What value of pIC50 has been reported for the following compound? COC(=O)CCC(=O)OC/C(C)=C/C(=O)OC[C@]1(O)[C@H]2C[C@H]2[C@]2(C)[C@@H]3CC4=C5[C@H](/C(=C(\C)C(=O)OC)C(=O)[C@H](O)[C@@]5(C)[C@@H]5C[C@H]45)[C@@]34OC(=O)C(CO)=C4C[C@@H]12
Marked response: 5.51

Exam item: Bench note: what pIC50 did COC(=O)/C(C)=C1\C(=O)[C@H](O)[C@]2(C)C3=C(C[C@@H]4[C@]5(OC(=O)C6=C5C[C@H]5[C@](O)(COC(=O)/C(C)=C/COC(=O)[C@@H](O)CC(=O)OC6)[C@H]6C[C@H]6[C@]45C)[C@H]31)[C@H]1C[C@H]12 show?
Marked response: 5.76

---

- assay: Selectivity index, ratio of IC50 for human WI38 cells to IC50 for chloroquine-resistant Plasmodium falciparum Dd2
- Type: toxicity
- experimental.setup: read-out: Ratio IC50
compounds and their reported selectivity ratio
Answer with the value's number alone.

COC(=O)/C(C)=C1\C(=O)[C@H](O)[C@]2(C)C3=C(C[C@@H]4[C@]5(OC(=O)C(COC(=O)C[C@H](O)C(=O)OC)=C5C[C@H]5[C@](O)(COC(=O)/C(C)=C/CO)[C@H]6C[C@H]6[C@]45C)[C@H]31)[C@H]1C[C@H]12 : 561

Pending compound:
Exam item: Fill blank: measured selectivity ratio of the compound C=C1C(=O)O[C@]23C4=C5C(=O)[C@H](O)[C@]6(C)C4=C(C[C@H]2[C@]2(C)C(C[C@]13[C@]5(C)C(=O)OC)[C@](O)(COC(=O)/C(C)=C/COC(=O)CCC(=O)OC)[C@H]1C[C@H]12)[C@H]1C[C@H]16 (some centres not stated) is ____.
Marked response: 157

---

Parameter selectivity ratio: see the listing below.
- assay: Selectivity index, ratio of IC50 for human WI38 cells to IC50 for chloroquine-resistant Plasmodium falciparum Dd2
- Assay type: toxicity
- experimental.setup: read-out: Ratio IC50
Please reply with the number alone, leaving off any unit.

C/C=C(\C)C(=O)OC[C@]1(O)[C@H]2CC3=C(CO)C(=O)O[C@@]34[C@@H]3C5=C(C[C@H]4[C@@]2(C)[C@@H]2C[C@@H]21)[C@H]1C[C@H]1[C@]5(C)[C@@H](O)C(=O)/C3=C(\C)C(=O)OC : 37

Exam item: Given the entry COC(=O)/C(C)=C1\C(=O)[C@H](O)[C@]2(C)C3=C(C[C@@H]4[C@]5(OC(=O)C6=C5C[C@H]5[C@](O)(COC(=O)/C(C)=C/COC(=O)CCC(=O)OC6)[C@H]6C[C@H]6[C@]45C)[C@H]31)[C@H]1C[C@H]12 , report its measured selectivity ratio.
Marked response: 619

Exam item: Returns the measured selectivity ratio for the input molecule. Input: COC(=O)CCC(=O)OC/C(C)=C/C(=O)OC[C@]1(O)[C@H]2C[C@H]2[C@]2(C)[C@@H]3CC4=C5[C@H](/C(=C(\C)C(=O)OC)C(=O)[C@H](O)[C@@]5(C)[C@@H]5C[C@H]45)[C@@]34OC(=O)C(CO)=C4C[C@@H]12
Marked response: 163

Exam item: Which selectivity ratio value is on record for COC(=O)/C(C)=C1/C(=O)[C@H](O)[C@]2(C)C3=C(C[C@@H]4[C@]5(OC(=O)C6=C5C[C@H]5[C@](O)(COC(=O)/C=C(\C)COC(=O)CCC(=O)OC6)[C@H]6C[C@H]6[C@]45C)[C@H]31)[C@H]1C[C@H]12 ?
Marked response: 27

Exam item: Name the recorded selectivity ratio for COC(=O)CCC(=O)OCC1=C2C[C@H]3[C@](O)(COC(=O)/C=C(\C)C=O)[C@H]4C[C@H]4[C@]3(C)[C@@H]3CC4=C5[C@H](/C(=C(\C)C(=O)OC)C(=O)[C@H](O)[C@@]5(C)[C@@H]5C[C@H]45)[C@]23OC1=O .
Marked response: 1700

Exam item: // selectivity ratio lookup, key: COC(=O)CCC(=O)OCC1=C2C[C@H]3[C@](O)(COC(=O)/C=C(\C)CO)[C@H]4C[C@H]4[C@]3(C)[C@@H]3CC4=C5[C@H](/C(=C(\C)C(=O)OC)C(=O)[C@H](O)[C@@]5(C)[C@@H]5C[C@H]45)[C@]23OC1=O
Marked response: 4900

Exam item: Need selectivity ratio of COC(=O)/C(C)=C1\C(=O)[C@H](O)[C@]2(C)C3=C(C[C@@H]4[C@]5(OC(=O)C6=C5C[C@H]5[C@](O)(COC(=O)/C=C(\C)COC(=O)CCC(=O)OC6)[C@H]6C[C@H]6[C@]45C)[C@H]31)[C@H]1C[C@H]12 , thanks.
Marked response: 21

---

- assay: Selectivity index, ratio of IC50 for human WI38 cells to IC50 for chloroquine-resistant Plasmodium falciparum Dd2
- Type: toxicity
- experimental.setup: read-out: Ratio IC50
# key: entry, value: selectivity ratio
The answer should be written as a number, with no unit following it.

Here is how some compounds turned out for selectivity ratio.
COC(=O)/C(C)=C1\C(=O)[C@H](O)[C@]2(C)C3=C(C[C@@H]4[C@]5(OC(=O)C(C)=C5C[C@H]5[C@](O)(COC(=O)/C=C(\C)CO)[C@H]6C[C@H]6[C@]45C)[C@H]31)[C@H]1C[C@H]12 : 46
COC(=O)CCC(=O)OC/C(C)=C/C(=O)OC[C@]1(O)[C@H]2C[C@H]2[C@]2(C)[C@@H]3C[C@@]4(OO)C5=C(/C(=C(\C)C(=O)OC)C(=O)[C@H](O)[C@@]5(C)[C@@H]5C[C@@H]54)[C@@]34OC(=O)C(CO)=C4C[C@@H]12 : 18

# evaluate next
Exam item: So what's the measured selectivity ratio for this one? COC(=O)/C(C)=C1\C(=O)[C@H](O)[C@]2(C)C3=C(C[C@@H]4[C@]5(OC(=O)C6=C5C[C@H]5[C@](O)(COC(=O)/C(C)=C/COC(=O)[C@@H](O)CC(=O)OC6)[C@H]6C[C@H]6[C@]45C)[C@H]31)[C@H]1C[C@H]12
Marked response: 134

---

# selectivity ratio per entry
- assay: Selectivity index, ratio of IC50 for human WI38 cells to IC50 for chloroquine-resistant Plasmodium falciparum Dd2
- Assay type: toxicity
- experimental.setup: read-out: Ratio IC50

COC(=O)/C(C)=C1\C(=O)[C@H](O)[C@]2(C)C3=C(C[C@@H]4[C@]5(OC(=O)C(CO)=C5C[C@H]5[C@](O)(COC(C)=O)[C@H]6C[C@H]6[C@]45C)[C@H]31)[C@H]1C[C@H]12 : 100

Here is the next item to consider.
Exam item: Can you share its selectivity ratio? I mean this compound: C/C=C(\C)C(=O)OC[C@]1(O)[C@H]2C[C@H]2[C@]2(C)[C@@H]3CC4=C5[C@H](/C(=C(/C)C(=O)OC)C(=O)[C@H](O)[C@@]5(C)[C@@H]5C[C@H]45)[C@@]34OC(=O)C(COC(C)=O)=C4C[C@@H]12
Marked response: 12
